// reported remaining at 10 min, 0.5 µM for each item listed
experiment: Metabolic stability in rat liver microsomes assessed as parent compound remaining at 0.5 uM incubated for 10 mins in presence of NADPH by LC-MS/MS analysis
Format: ADME, Microsome
cond: read-out: Stability
Lab book: enter the figure in %, no units written.

Completed entries (count: 4):
CCc1nc([C@@H](N)CC(C)C)nc2ccc(-c3cnco3)cc12 :: 26
CC(C)C[C@H](N)c1cc(C#N)c2cc(-c3cnco3)ccc2n1 :: 56
CC(C)C[C@@H](N)c1cc(C#N)c2cc(-c3ccncc3)ccc2n1 :: 43
CCc1nc([C@@H](N)CC(C)C)nc2cc(OC)c(-c3cnco3)cc12 :: 43

I'd like to know its remaining at 10 min, 0.5 µM. The molecule in question is `CC(C)C[C@H](N)c1cc(C#N)c2cc(-c3ccncc3)ccc2n1`
50
